These measurements were taken from PubChem BioAssay AID617.

tested on: E. coli BW25113 ΔtolC growth inhibition, OD615; experiment: growth inhibitors of E. coli tolC mutant, dose response, strain BW25113 ΔtolC::kan (AID 617);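 further: growth read after 20 h at 37 °C with compound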
pIC50: −log10 of the molar value.
PARAMETER MEASURED: pIC50

INSERT INTO results (molecule, value_reported) VALUES
  ('CC(C)c1nc(N2CCN(C(=O)c3ccco3)CC2)c2c3c(sc2n1)CCCC3', 4.87),
  ('COc1ccccc1-n1c(=O)oc2ccc(Cl)cc2c1=O', 5.83),
  ('O=C(Nc1nc(-c2ccccn2)cs1)c1ccc(Cl)s1', 6.89),
  ('Cc1ccc(S(=O)(=O)NCCSc2nnnn2-c2cc(C)ccc2C)cc1', 4.87),
  ('Cc1oc2c(CN3CCCC3)c(O)ccc2c(=O)c1-c1ccc(Br)cc1', 4.59),
  ('OCCn1c(-c2ccc3c(c2)OCO3)csc1=Nc1ccccc1', 4.63),
  ('Cc1ccc(-c2csc3ncnc(Sc4nnc(CN5CCCCCC5=O)o4)c23)cc1', 4.67),
  ('Cc1cccc(N(C)C(=O)c2cc3cc4ccc(C)cc4nc3o2)c1', 4.62),
  ('CCc1cccc(NC(=O)c2ccc(NS(=O)(=O)c3c(C)noc3C)cc2)c1', 5.15),
  ('CCCOc1ccc(C(=O)N2CCN(c3ccc(NC(=O)CC)cc3Cl)CC2)cc1', 4.83),
  ('Cc1noc(C)c1S(=O)(=O)N(CCc1ccccc1)Cc1ccccc1', 4.78),
  ('Cc1cc(N2CCCCC2)n2ncc(-c3ccccc3)c2n1', 4.76),
  ('COc1ccccc1-c1cc(C(=O)NCc2ccccc2)no1', 4.77),
  ('CCCn1nnnc1NC(=O)CSc1ccc(Cl)cc1', 5.38),
  ('O=S(=O)(c1ccccc1)N1CCN(Cc2ccccc2C(F)(F)F)CC1', 4.77),
  ('CC(C)c1ccc(OCc2ccc(C(=O)N3CCN(c4ccccn4)CC3)cc2)cc1', 5.09),
  ('Cc1ccccc1CSc1nc2n(n1)C(c1cccs1)C1=C(CCCC1=O)N2 (stereo not drawn)', 5.07),
  ('CCn1c(SCC(=O)OC2CCCCC2)nc2ccccc2c1=O', 4.93),
  ('Oc1ccc(Br)cc1-c1nc2cnccn2c1NC1CCCC1', 4.98),
  ('CCCc1nc2sc3ccccc3c(=O)c2c(=O)n1Cc1ccco1', 5.24),
  ('N#CC(C#N)=c1ccc2c(c1)N1C3=C(CCCC3)CC3CCCCC31N=2 (stereo not drawn)', 4.12),
  ('O=C(NCc1ccco1)c1cc2sccc2n1Cc1ccccc1', 4.84),
  ('O=C(Nc1nnc(-c2ccccc2Cl)o1)c1cccnc1', 4.78);
